Assay: Toxicity against brine shrimp larvae assessed as mortality at 100 ug/mL after 24 hrs by binocular microscopic analysis relative to control
Format: organism-based
Details: artemia salina, in vivo
Values of mortality at 24 h, 100 ug/mL greater than or equal to 80% map to met; values below map to not met.

Answered cases to consult:
> print(dat)
                                   compound  assigned.category
1  NS(=O)(=O)C1=NN2C(=O)c3ccccc3NC(c3ccsc3)/N=C\2S1 (stereo not given)            not met
2    O=c1[nH]cc(F)c(=O)[nH]1 [FLUOROURACIL]                met
3  COc1ccc(/N=N/c2c(N)n3nc(S(N)(=O)=O)sc3nc2=O)cc1                met
4  CN(C)c1ccc(C2C(C#N)C(=O)N=C3SC(S(N)(=O)=O)=NN32)cc1 (stereo not given)                met
5  CCOC(=O)C1C(=O)N=C2SC(S(N)(=O)=O)=NN2C1c1ccc(OC)c(OC)c1 (stereo not given)            not met
6  CCOC(=O)C1C(=O)N=C2SC(S(N)(=O)=O)=NN2C1c1ccc(Cl)cc1 (stereo not given)            not met
7             NS(=O)(=O)C1=NN2CCC(=O)N=C2S1                met
8  COc1ccc(C2C(C#N)C(=O)N=C3SC(S(N)(=O)=O)=NN32)cc1OC (stereo not given)            not met

Switching to the query record.
# input Dear colleague, could you confirm whether COc1ccc2c(c1)CCC1=C2N=C2SC(S(N)(=O)=O)=NN2C1c1ccc(Cl)cc1 (stereo not given) has mortality at 24 h, 100 ug/mL at or above 80%?
# output not met

* * *

System: Aspergillus fumigatus
Experiment: Antifungal activity against Aspergillus fumigatus Af293 at 5 mg/mL after 48 hrs
Format: functional
Details: Af293, 48 h, read-out: DIZ
Listed below: zone of inhibition at 5000 µg/mL values for each entry.
The response must be a number in mm with no trailing unit.

> print(dat)
                                   compound      system.under.test  reported.measurement
1  Cc1ccc(/N=N/c2c(N)n3nc(S(N)(=O)=O)sc3nc2=O)cc1  Aspergillus fumigatus                     6
2  CN(C)c1ccc(C2C(C#N)C(=O)N=C3SC(S(N)(=O)=O)=NN32)cc1 (stereo not given)  Aspergillus fumigatus                     8

Here's the next entry for you.
# input Request - read-out zone of inhibition at 5000 µg/mL | tested on Aspergillus fumigatus | compound COc1ccc2c(c1)CCC1=C2N=C2SC(S(N)(=O)=O)=NN2C1c1ccc(Br)cc1 (stereo not given)
# output 6

* * *

Test: Toxicity against brine shrimp larvae assessed as mortality at 1000 ug/mL after 24 hrs by binocular microscopic analysis relative to control
Type: organism-based
Details: artemia salina, in vivo
Reported metric: mortality at 24 h, 1000 ug/mL (%)
The response must be a number in % with no trailing unit.

> print(dat)
                                   compound  output.unit  reported.measurement
1             NS(=O)(=O)C1=NN2CCC(=O)N=C2S1            %                   100
2    O=c1[nH]cc(F)c(=O)[nH]1 [FLUOROURACIL]            %                   100
3  CN(C)c1ccc(C2C(C#N)C(=O)N=C3SC(S(N)(=O)=O)=NN32)cc1 (stereo not given)            %                   100
4  COc1ccc2c(c1)CCC1=C2N=C2SC(S(N)(=O)=O)=NN2C1c1ccc(OC)c(OC)c1 (stereo not given)            %                  93.3
5  N#CC1C(=O)N=C2SC(S(N)(=O)=O)=NN2C1c1ccc(Cl)cc1 (stereo not given)            %                  66.6
6  Cc1ccc(/N=N/c2c(N)n3nc(S(N)(=O)=O)sc3nc2=O)cc1            %                   100
7  COc1ccc2c(c1)CCC1=C2N=C2SC(S(N)(=O)=O)=NN2C1c1ccc(Cl)cc1 (stereo not given)            %                  96.6
8  CCOC(=O)C1C(=O)N=C2SC(S(N)(=O)=O)=NN2C1c1ccc(Cl)cc1 (stereo not given)            %                  83.3
9  COc1ccc(C2C(C#N)C(=O)N=C3SC(S(N)(=O)=O)=NN32)cc1OC (stereo not given)            %                    70

Here's the next entry for you.
# input Please give the measured mortality at 24 h, 1000 ug/mL for this compound: COc1ccc(/C=C2\C(=O)N=C3SC(S(N)(=O)=O)=NN32)cc1OC
# output 96.6
